Target: FAAH (Homo sapiens, UniProt O00519)
Sequence (O00519 whole entry): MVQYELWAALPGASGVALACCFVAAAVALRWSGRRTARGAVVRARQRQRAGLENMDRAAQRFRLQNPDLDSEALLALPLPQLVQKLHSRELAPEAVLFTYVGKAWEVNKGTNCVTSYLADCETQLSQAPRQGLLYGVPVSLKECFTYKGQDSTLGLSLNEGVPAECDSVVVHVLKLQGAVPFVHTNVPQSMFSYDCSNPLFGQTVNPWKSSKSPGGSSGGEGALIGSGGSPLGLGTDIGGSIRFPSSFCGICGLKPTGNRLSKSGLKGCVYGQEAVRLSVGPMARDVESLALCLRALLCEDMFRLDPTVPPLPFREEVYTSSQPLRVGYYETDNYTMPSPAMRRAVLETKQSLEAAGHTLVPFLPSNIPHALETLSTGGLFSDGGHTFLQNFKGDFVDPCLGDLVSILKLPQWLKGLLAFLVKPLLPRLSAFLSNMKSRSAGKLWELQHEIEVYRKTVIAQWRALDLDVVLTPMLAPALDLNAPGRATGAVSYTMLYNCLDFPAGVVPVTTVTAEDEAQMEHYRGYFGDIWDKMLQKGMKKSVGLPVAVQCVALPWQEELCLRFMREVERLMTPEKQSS
Assay: Assay Method 1: human FAAH assay (3H-anandamide hydrolysis in cell homogenate)
Assay type: biochemical
Design: expressed in transfected cells; host or cells: SK-N-MC cells stably transfected with human FAAH cDNA (G418 selection); alternatively T84 cell pellets
Details: read-out: Assay 1 IC50
pIC50: −log10 of the molar value. Where a name gives a salt, the structure may show the parent alone.
readout_label: pIC50

# annotated cases, reported pIC50 shown
>>> data_value("O=C(Nc1cccnc1Cl)N1CC2(CCN(Cc3cccc(Oc4ccc(Cl)cc4)c3)CC2)C1 [Example 54, trifluoroacetic acid salt]")
6.77
>>> data_value("O=C(Nc1cccnc1)N1CC2(CN(Cc3cccc(Oc4ccc(Cl)cc4)c3)C2)C1")
7.52
>>> data_value("O=C(Nc1ccc(-n2nccn2)nc1)N1CCCC2(CCN(Cc3cccc(Oc4ccc(Cl)cc4)c3)CC2)C1")
5.40
>>> data_value("O=C(Nc1cccnc1)N1CC2(CCN(Cc3ccc(Cl)cc3)CC2)C1")
5.10
>>> data_value("O=C(Nc1cccnc1)N1CC2(CCN(Cc3cccc(Oc4ccc(C(F)(F)F)cc4)c3)CC2)C1")
6.80

A. O=C(Nc1cccnc1)N1CCC2(CCN(Cc3cccc(Oc4ccc(Cl)cc4)c3)CC2)CC1
B. O=C(Nc1ccc(-n2nccn2)nc1)N1CCCC2(CCCN(Cc3cccc(Oc4ccc(Cl)cc4)c3)C2)C1 (stereo not shown)
C. O=C(Nc1ccc(-n2nccn2)nc1)N1CCC2(CCN(Cc3cccc(Oc4ccc(Cl)cc4)c3)CC2)C1 [Example 19]
-- ask Please list the entries, largest pIC50 first. Write the labels, ordered according to the request.
-- reply A, C, B
(A: 7.52, C: 6.00, B: 5.64)

A. O=C(Nc1ccc(-n2nccn2)nc1)N1CCC2(CCN(Cc3cccc(Oc4ccc(Cl)cc4)c3)C2)CC1
B. COc1ccc(NC(=O)N2CC3(CCN(Cc4cccc(Oc5ccc(Cl)cc5)c4)CC3)C2)cn1 [Example 49, trifluoroacetic acid salt]
C. O=C(Nc1cccnc1)N1CCC2(CCN(Cc3cccc(Oc4ccc(Cl)cc4)c3)C2)CC1
D. O=C(Nc1noc2ccccc12)N1CCC2(CC1)CN(Cc1cccc(Oc3ccc(Cl)cc3)c1)C2
E. COc1cc(NC(=O)N2CC3(CCN(Cc4cccc(Oc5ccc(Cl)cc5)c4)CC3)C2)ncn1 [Example 59, trifluoroacetic acid salt]
-- ask Please list the entries, largest pIC50 first. Write the labels, ordered according to the request.
-- reply A, C, D, E, B

a. O=C(Nc1ccc(-n2nccn2)cc1)N1CC2(CCN(Cc3cccc(Oc4ccc(Cl)cc4)c3)CC2)C1 [Example 41, trifluoroacetic acid salt]
b. O=C(Nc1cccnc1)N1CC2(CCN(Cc3cccc(Oc4cccc(Cl)c4)c3)CC2)C1
c. O=C(Nc1noc2cccnc12)N1CC2(CCN(Cc3cccc(Oc4ccc(Cl)cc4)c3)CC2)C1 [Example 67, trifluoroacetic acid salt]
-- ask Arrange items by their pIC50 values in increasing order. Write the labels, ordered according to the request.
-- reply c, b, a
(c: 6.80, b: 7.22, a: 7.70)

###

Target: Rat FAAH (Rattus norvegicus, UniProt P97612)
Construct: expressed in transfected cells; host or cells: SK-N-MC cells stably transfected with rat FAAH cDNA (G418 selection)
Sequence (P97612 whole entry): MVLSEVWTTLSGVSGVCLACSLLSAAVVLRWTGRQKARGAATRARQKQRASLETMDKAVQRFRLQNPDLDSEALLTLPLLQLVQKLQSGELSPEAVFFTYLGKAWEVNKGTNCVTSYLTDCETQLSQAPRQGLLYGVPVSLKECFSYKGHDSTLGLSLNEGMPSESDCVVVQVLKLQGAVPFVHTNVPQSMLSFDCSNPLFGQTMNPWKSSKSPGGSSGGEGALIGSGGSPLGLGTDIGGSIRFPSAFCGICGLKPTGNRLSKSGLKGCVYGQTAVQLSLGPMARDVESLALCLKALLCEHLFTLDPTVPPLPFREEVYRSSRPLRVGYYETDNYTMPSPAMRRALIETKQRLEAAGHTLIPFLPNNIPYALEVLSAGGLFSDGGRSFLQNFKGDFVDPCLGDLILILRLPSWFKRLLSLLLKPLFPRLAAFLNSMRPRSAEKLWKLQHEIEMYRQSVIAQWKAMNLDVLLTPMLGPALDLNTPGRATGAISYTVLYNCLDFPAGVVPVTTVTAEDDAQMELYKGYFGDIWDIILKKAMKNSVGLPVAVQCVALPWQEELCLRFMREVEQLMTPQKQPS
Test: Assay Method 2: rat FAAH assay (3H-anandamide hydrolysis in cell homogenate)
Format: biochemical
Conditions: read-out: Assay 2 IC50
pIC50: −log10 of the molar value. Structures can show the parent of a compound that is named as a salt.
readout_label: pIC50

# annotated cases, reported pIC50 shown
>>> data_value("N#Cc1ccc(NC(=O)N2CC3(CCN(Cc4cccc(Oc5ccc(Cl)cc5)c4)CC3)C2)cn1 [Example 50, trifluoroacetic acid salt]")
5.10
>>> data_value("O=C(Nc1cccnc1)N1CC2(CCN(Cc3ccc(Cl)c(OC(F)(F)F)c3)CC2)C1 [Example 110]")
5.22

1. O=C(Nc1cccnc1)N1CC2(CCN(Cc3cccc(Oc4cccc(Cl)c4)c3)CC2)C1 [Example 112]
2. N#Cc1cccc(Oc2cccc(CN3CCC4(CC3)CN(C(=O)Nc3cccnc3)C4)c2)c1 [Example 116]
3. O=C(Nc1ccc(N2CCCCC2)nc1)N1CC2(CCN(Cc3cccc(Oc4ccc(Cl)cc4)c3)CC2)C1 [Example 81, trifluoroacetic acid salt]
-- ask Please list the entries, largest pIC50 first. Write the labels, ordered according to the request.
-- reply 1, 3, 2

###

Target: FAAH (Homo sapiens)
Experiment: Assay Method 1: human FAAH assay (3H-anandamide hydrolysis in cell homogenate)
Type: biochemical
Set-up: expressed in transfected cells; host or cells: SK-N-MC cells stably transfected with human FAAH cDNA (G418 selection); alternatively T84 cell pellets
Conditions: read-out: Assay 1 IC50
pIC50: −log10 of the molar value.
readout_label: pIC50

A. O=C(Nc1cccnc1)N1CC2(CCN(Cc3cccc(Oc4ccc5ncccc5c4)c3)CC2)C1
B. O=C(Nc1noc2ccccc12)N1CCC2(CCN(Cc3cccc(Oc4ccc(Cl)cc4)c3)C2)CC1
C. O=C(Nc1cccnc1)N1CC2(CCN(Cc3cccc(Oc4ccc(F)c(F)c4)c3)CC2)C1
-- ask I'd appreciate it if you could rank the compounds mentioned above by pIC50, largest value first. Write the labels, ordered according to the request.
-- reply B, C, A
(B: 6.89, C: 6.52, A: 6.08)

###

Biological target: Rat FAAH (Rattus norvegicus)
Construct: expressed in transfected cells; host or cells: SK-N-MC cells stably transfected with rat FAAH cDNA (G418 selection)
Assay: Assay Method 2: rat FAAH assay (3H-anandamide hydrolysis in cell homogenate)
Type: biochemical
Conditions: read-out: Assay 2 IC50
Counter-ions that a name gives are not always drawn.
readout_label: IC50 (µM)

# annotated cases, reported IC50 shown
>>> data_value("Cc1nc2cc(NC(=O)N3CC4(CCN(Cc5cccc(Oc6ccc(Cl)cc6)c5)CC4)C3)ccc2o1")
1.06
>>> data_value("O=C(Nc1cccnc1)N1CC2(CN(Cc3cccc(Oc4ccc(Cl)cc4)c3)C2)C1")
0.7
>>> data_value("O=C(Nc1cnccc1Cl)N1CC2(CN(Cc3cccc(Oc4ccc(Cl)cc4)c3)C2)C1")
0.03
>>> data_value("COc1cc(NC(=O)N2CC3(CCN(Cc4cccc(Oc5ccc(Cl)cc5)c4)CC3)C2)ncn1 [Example 59, trifluoroacetic acid salt]")
0.08
>>> data_value("Cc1ccncc1NC(=O)N1CC2(CCN(Cc3cccc(Oc4ccc(Cl)cc4)c3)CC2)C1")
0.04
>>> data_value("O=C(Nc1cccnc1)N1CC2(CCN(Cc3cccc(Oc4cccc(C(F)(F)F)c4)c3)CC2)C1")
4

1. O=C(Nc1ccnc2[nH]ccc12)N1CC2(CCN(Cc3cccc(Oc4ccc(Cl)cc4)c3)CC2)C1 [Example 74, trifluoroacetic acid salt]
2. O=C(Nc1cccnc1)N1CCCC2(CCCN(Cc3cccc(Oc4ccc(Cl)cc4)c3)C2)C1 (stereo not drawn)
-- ask Larger number for IC50: 1 , or 2 ? Return value: the label identifying the chosen record.
-- reply 1
(1: 2 µM, 2: 0.3 µM)

A. O=C(Nc1cnc2[nH]ccc2c1)N1CCC2(CCN(Cc3cccc(Oc4ccc(Cl)cc4)c3)CC2)CC1
B. O=C(Nc1cnc2[nH]ccc2c1)N1CCC2(CCCN2Cc2cccc(Oc3ccc(Cl)cc3)c2)CC1
-- ask Larger number for IC50: A , or B ? Return value: the label identifying the chosen record.
-- reply B
(B: 0.4 µM, A: 0.06 µM)

###

Molecular target: FAAH (Homo sapiens, UniProt O00519)
Assay: Assay Method 1: human FAAH assay (3H-anandamide hydrolysis in cell homogenate)
Assay type: biochemical
Parameters: expressed in transfected cells; host or cells: SK-N-MC cells stably transfected with human FAAH cDNA (G418 selection); alternatively T84 cell pellets
Details: read-out: Assay 1 IC50
Structures can show the parent of a compound that is named as a salt.
readout_label: IC50 (nM)

# annotated cases, reported IC50 shown
>>> data_value("O=C(Nc1ccc(N2CCCCC2)nc1)N1CC2(CCN(Cc3cccc(Oc4ccc(Cl)cc4)c3)CC2)C1 [Example 81, trifluoroacetic acid salt]")
1600
>>> data_value("O=C(Nc1ccc(Cl)nn1)N1CC2(CCN(Cc3cccc(Oc4ccc(Cl)cc4)c3)CC2)C1 [Example 60, trifluoroacetic acid salt]")
300
>>> data_value("O=C(Nc1cccnc1)N1CC2(CCN(Cc3ccc(OC(F)(F)F)cc3)CC2)C1")
1300

a. O=C(Nc1noc2ncccc12)N1CC2(CCN(Cc3cccc(Oc4ccc(Cl)cc4)c3)CC2)C1 [Example 66, trifluoroacetic acid salt]
b. O=C(Nc1cncc(Br)c1)N1CC2(CCN(Cc3cccc(Oc4ccc(Cl)cc4)c3)CC2)C1 [Example 82, trifluoroacetic acid salt]
-- ask Hey, which is lower on measured IC50, a or b ? Return value: the label identifying the chosen record.
-- reply a

###

Molecular target: FAAH (Homo sapiens, UniProt O00519)
Experiment: Assay Method 1: human FAAH assay (3H-anandamide hydrolysis in cell homogenate)
Format: biochemical
Parameters: expressed in transfected cells; host or cells: SK-N-MC cells stably transfected with human FAAH cDNA (G418 selection); alternatively T84 cell pellets
Settings: read-out: Assay 1 IC50
Where a name gives a salt, the structure may show the parent alone.
readout_label: IC50 (nM)

# annotated cases, reported IC50 shown
>>> data_value("O=C(Nc1ccc(Cl)nc1)N1CC2(CCN(Cc3cccc(Oc4ccc(Cl)cc4)c3)CC2)C1 [Example 48, trifluoroacetic acid salt]")
1500
>>> data_value("O=C(Nc1ccc(-n2cncn2)nc1)N1CC2(CCN(Cc3cccc(Oc4ccc(Cl)cc4)c3)CC2)C1 [Example 46, trifluoroacetic acid salt]")
1000
>>> data_value("O=C(Nc1ccc(-n2nccn2)nc1)N1CCCC2(CCN(Cc3cccc(Oc4ccc(Cl)cc4)c3)C2)C1 (centres unmarked)")
3000
>>> data_value("O=C(Nc1ccc(-n2nccn2)nc1)N1CCC2(CCCN2Cc2cccc(Oc3ccc(Cl)cc3)c2)CC1")
370
>>> data_value("O=C(Nc1cccc2nonc12)N1CC2(CCN(Cc3cccc(Oc4ccc(Cl)cc4)c3)CC2)C1 [Example 52, trifluoroacetic acid salt]")
660
>>> data_value("O=C(Nc1cnccc1Cl)N1CC2(CN(Cc3cccc(Oc4ccc(Cl)cc4)c3)C2)C1")
10
>>> data_value("O=C(Nc1cnc2[nH]ccc2c1)N1CCC2(CCN(Cc3cccc(Oc4ccc(Cl)cc4)c3)CC2)CC1")
40

I. N#Cc1cccc(Oc2cccc(CN3CCC4(CC3)CN(C(=O)Nc3cccnc3)C4)c2)c1
II. O=C(Nc1ccc(-n2nccn2)nc1)N1CCC2(CCN(Cc3cccc(Oc4ccc(Cl)cc4)c3)C2)C1 (centres unmarked)
III. O=C(Nc1ccc(-n2cccn2)nc1)N1CC2(CCN(Cc3cccc(Oc4ccc(Cl)cc4)c3)CC2)C1 [Example 45, trifluoroacetic acid salt]
IV. O=C(Nc1ccc(-n2nccn2)nc1)N1CCC2(CCCN2Cc2cccc(Oc3ccc(Cl)cc3)c2)C1 (centres unmarked)
-- ask Arrange items by their IC50 values in increasing order. Write the labels, ordered according to the request.
-- reply III, I, II, IV

Sourced from patent US20120083476A1
